target: GABA-A receptor; alpha-3/beta-3/gamma-2 (Homo sapiens) (UniProt P18507+P28472+P34903); experiment: Efficacy against human recombinant GABA-Aalpha3 plus beta-3-gamma-2 receptor expressed in L(tk-) cells assessed as modulation of chloride ion by whole cell patch clamp method relative to chlorodiazepoxide; type: functional, cell-based
Label Fulfilled when Efficacy is strictly below 0.4; otherwise label Not fulfilled.

**Query** # TODO verify Efficacy < 0.4 strictly for this molecule: Cn1ncnc1COc1nn2c(-c3ccco3)nncc2c1-c1ccccc1F
**Result** Fulfilled

**Query** Request: Cn1ncnc1COc1nn2c(-c3ccccc3F)nncc2c1-c1cccc(Cl)c1
**Result** Not fulfilled

**Query** Request: Cn1ncnc1COc1nn2c(-c3ccccc3F)nncc2c1-c1cc(F)ccc1F
**Result** Not fulfilled

**Query** Request: Cn1ncnc1COc1nn2c(-c3c(F)cc(F)cc3F)nncc2c1-c1ccccc1F
**Result** Not fulfilled

**Query** Request: Cn1ncnc1COc1nn2c(-c3ccccc3F)nncc2c1-c1ccc(F)cc1
**Result** Fulfilled

**Query** Request: Cn1ncnc1COc1nn2c(-c3ccc(F)cc3)nncc2c1-c1ccccc1F
**Result** Not fulfilled

**Query** Request: Cn1ncnc1COc1nn2c(-c3ccc(F)cc3F)nncc2c1-c1ccccc1F
**Result** Not fulfilled

**Query** Request: Cn1ncnc1COc1nn2c(-c3ccccc3F)nncc2c1-c1ccco1
**Result** Fulfilled

**Query** Request: Cn1ncnc1COc1nn2c(-c3ccccc3F)nncc2c1-c1cccc(C(F)(F)F)c1
**Result** Not fulfilled

Source of measurements: ChEMBL document CHEMBL1138896
